Tested on: Plasmodium falciparum
Experiment: Antimalarial activity against CQ, MFQ-resistant Plasmodium falciparum TM91C235 clone Southeast asian isolate assessed as inhibition of parasite proliferation by MSF assay
Type: functional, organism-based
REPORTED_ENDPOINT: pIC50
Quick note: pIC50 means taking -log10 of the concentration in moles per liter.

CC(=O)O[C@H]1C[C@H]2[C@@H]([C@H](OC(C)=O)C[C@@H]3C[C@H](N)CC[C@@]32C)[C@@H]2CC[C@H]([C@H](C)CCCNCCCNc3ccnc4cc(Cl)ccc34)[C@@]12C: 6.61
CC(=O)O[C@H]1C[C@H]2[C@@H]([C@H](OC(C)=O)C[C@@H]3C[C@H](N(C)C)CC[C@@]32C)[C@@H]2CC[C@H]([C@H](C)CCCN(C)CCCNc3ccnc4cc(Cl)ccc34)[C@@]12C: 7.13
CC(=O)O[C@H]1C[C@H]2[C@@H]([C@H](OC(C)=O)C[C@@H]3CC(=O)CC[C@@]32C)[C@@H]2CC[C@H]([C@H](C)CCCNCCCCNc3ccnc4cc(Cl)ccc34)[C@@]12C: 6.67

(Q) Query: pIC50; subject: `CC(=O)O[C@H]1C[C@H]2[C@@H]([C@H](OC(C)=O)C[C@@H]3C[C@H](O)CC[C@@]32C)[C@@H]2CC[C@H]([C@H](C)CCCNCCNc3ccnc4cc(Cl)ccc34)[C@@]12C`
(A) 8.17

(Q) Query: pIC50; subject: `CC(=O)N[C@@H]1CC[C@@]2(C)[C@@H](C1)C[C@@H](OC(C)=O)[C@@H]1[C@@H]2C[C@H](OC(C)=O)[C@]2(C)[C@@H]([C@H](C)CCCNCCCNc3ccnc4cc(Cl)ccc34)CC[C@@H]12`
(A) 7.55
